Entries annotated with measured solubility (concentration dissolved to)
- Experiment: Solubility of the surfactant
- Test settings: in 50 mM ammonium bicarbonate
Recorded endpoint: solubility (concentration dissolved to) (%)

>>> df
                                   compound  unit  recorded_result
0  CCCCCCCCCCCCC(OC(=O)NCCCS(=O)(=O)O)c1cc(OC)c(OC)c(OC)c1 (stereo not shown)     %                2
1  CCCCCCCCCCCCC(OC(=O)NCCCS(=O)(=O)O)c1ccc(OC)c(OC)c1 (stereo not shown)     %                2
2  CCCCCCCCCCC(OC(=O)NCCCS(=O)(=O)[O-])c1ccc(OC)cc1.[Na+] (stereo not shown)     %                1
3  CCCCCCCCCCC(OC(=O)NCCCS(=O)(=O)O)c1ccco1 (stereo not shown)     %                1

Hey, just so you know, these numbers are from patent US10626349B2.
